Values from patent US6337344B1

Where a name gives a salt, the structure may show the parent alone.
Quantity name: melting point

Answered cases to consult:
{"Molecule": "COc1cccc2c1cc(C(=O)NCc1ccc(O)cc1)n2Cc1cccc(C(=N)N)c1.Cl", "melting point": "202 °C (dec.)"}
{"Molecule": "CC(=O)O.C[N+](C)(C)c1ccc(CNC(=O)c2cc3cc(S(C)(=O)=O)ccc3n2Cc2cccc(C(=N)N)c2)cc1.O=C([O-])C(F)(F)F", "melting point": "70 °C (dec.)"}
{"Molecule": "COc1cccc2c1cc(C(=O)NC(c1ccccc1)c1cc[n+](C)cc1)n2Cc1cccc(C(=N)N)c1.O=C(O)C(F)(F)F.O=C([O-])C(F)(F)F (racemic)", "melting point": "135 °C"}
{"Molecule": "CC(=O)O.CCOC(=O)c1cc2c(C)cccc2n1Cc1cccc(C(=N)N)c1", "melting point": "187 °C (dec.)"}
{"Molecule": "N=C(N)c1cccc(Cn2c(C(=O)NCc3ccc(Cl)cc3)cc3ccccc32)c1.O=C(O)C(F)(F)F", "melting point": "230 °C (dec.)"}

Enquiry: Which measured melting point value corresponds to CN(C)c1ccc(CNC(=O)c2cc3cc(Cl)ccc3n2Cc2cccc(/C(N)=N/O)c2)cc1 ?
Return: 200 °C (dec.)

Enquiry: Which measured melting point value corresponds to C=CC[N+](C)(C)c1ccc(CNC(=O)c2cc3cc(F)ccc3n2Cc2cccc(C(=N)N)c2)cc1.CC(=O)O.[Cl-] ?
Return: 133 °C (dec.)

Enquiry: Which measured melting point value corresponds to Cc1cccc2c1cc(C(=O)NCc1ccc([N+](C)(C)C)cc1)n2Cc1cccc(C(=N)N)c1.O=C(O)C(F)(F)F.O=C([O-])C(F)(F)F ?
Return: 81 °C (dec.)

Enquiry: Which measured melting point value corresponds to N=C(N)c1ccc(Cn2c(C(=O)NC(c3ccccc3)c3ccncc3)cc3ccccc32)cc1.O=C(O)C(F)(F)F.O=C(O)C(F)(F)F (racemic) ?
Return: 150 °C

Enquiry: Which measured melting point value corresponds to N=C(N)c1cccc(CNC(=O)c2c(Cl)c3ccccc3n2Cc2cccc(C(=N)N)c2)c1 (as salt: trifluoroacetic acid salt) ?
Return: 227 °C

Enquiry: Which measured melting point value corresponds to CC(=O)O.CC(=O)O.Cc1cccc2c1cc(C(=O)OCc1cccc(C(=N)N)c1)n2Cc1cccc(C(=N)N)c1 ?
Return: 53 °C (dec.)

Enquiry: Which measured melting point value corresponds to N=C(N)c1cccc(Cn2c(C(=O)NCCc3ccc(Cl)cc3Cl)cc3c(O)cccc32)c1.O=C(O)C(F)(F)F ?
Return: 144 °C

Enquiry: Which measured melting point value corresponds to CC(=O)O.CC(=O)O.N=C(N)c1cccc(COC(=O)c2cc3cc(OCc4ccccc4)ccc3n2Cc2cccc(C(=N)N)c2)c1 ?
Return: 147 °C (dec.)

Enquiry: Which measured melting point value corresponds to C[N+](C)(C)c1ccc(CNC(=O)c2c(Cl)c3ccccc3n2Cc2cccc(C(=N)N)c2)cc1 (as salt: trifluoroacetic acid salt) ?
Return: 57 °C
